tested on: non-replicating M. tuberculosis; test: microbe, parasite or virus in culture; type: cell-based, Mycobacterium tuberculosis; details: Mycobacterium tuberculosis, read-out: MIC NR at 0.01 Inoc. and 3 Day Exposure to Drug, 11 Day Outgrowth; Table 8; ranges from multiple assays
Listing of recorded MIC by entry.
Express your answer in µg/mL, writing the number without its unit.

COc1ccc(CCC(=O)N[C@@H]2C(=O)N3C(C(=O)OCc4ccccc4)=C(C)CS[C@H]23)cc1	0.78

# ---- query molecule ----
Could you share which MIC value was measured for CCCN[C@@H]1C(=O)N2C(C(=O)OCCC)=C(C)CS[C@H]12 [Compound 11c] ?
0.78

====

Listing of recorded HepG2 Toxicity LD50 by entry.
Test system: HepG2 cells
Type: cell-based
Details: human, 2 day
Experimental: Three lead compounds were identified in the first round of high throughput screening (700 compounds), which had minimal inhibitory concentrations (MIC) of 0.4-0.8 μg/mL after a six day exposure to drug (NRd6) in the model of non-replication at pH 5.0, and LD50's of 100 to >100 μg/mL against HepG2 cells (a 2 day exposure). Furthermore, LD50 values were determined using a human hepatoma cell line (HepG2) using intracellular ATP levels as a measurement that correlated with cellular viability.

These solved cases illustrate the format of a correct answer.
C=CC1=C(C(=O)O)N2C(=O)[C@@H](NC(=O)/C(=N\O)c3csc(N)n3)[C@H]2SC1 [Compound 107]	>100 µg/mL
CCCN[C@@H]1C(=O)N2C(C(=O)OCCC)=C(C)CS[C@H]12 [Compound 11c]	100−>100

# ---- query compound ----
Could you share which HepG2 Toxicity LD50 value was measured for CCCCOC(=O)C1C(C)=CS[C@@H]2[C@H](NC(=O)COc3ccccc3)C(=O)N12 (stereo partly drawn) [Compound 98] ?
100 µg/mL
